TARGET_SYSTEM: DK100 DNA duplex
ASSAY_METHOD_TEXT: Native ESI-MS, DK100
Format: binding
CONDITIONS: 10 μM DNA, 20 μM ligand, 100 mM ammonium acetate; read-out: Kd1 DK100

CHEMICAL_STRUCTURE	TARGET_SYSTEM	Kd (µM)
COc1ccc(-[n+]2c3ccc4cc(OC)ccc4c3cc3c4ccc(OC)cc4ccc32)cc1	DK100 DNA duplex	156
c1ccc(-[n+]2c3ccc4ccccc4c3cc3c4ccccc4ccc32)cc1	DK100 DNA duplex	40
COc1ccc2c(ccc3c2cc2c4ccc(OC)cc4ccc2[n+]3-c2ccccc2)c1	DK100 DNA duplex	1030
COC(=O)c1ccc(-[n+]2c3ccc4cc(OC)ccc4c3cc3c4ccc(OC)cc4ccc32)cc1	DK100 DNA duplex	833

----------
TARGET_SYSTEM: rLTR4-3′Cy5 (parallel RNA G4)
ASSAY_METHOD_TEXT: Ligand-induced fluorescence quenching assay (FQA), rLTR4-3′Cy5
Assay type: binding, HIV-1
CONDITIONS: +10µM ds26
# key: entry, value: Kd

MOLECULE	UNITS	Kd
COc1ccc2c(ccc3c2cc2c4ccc(OC)cc4ccc2[n+]3-c2ccc([N+](=O)[O-])cc2)c1 [DBA4]	µM	5.3
COC(=O)c1ccc(-[n+]2c3ccc4cc(OC)ccc4c3cc3c4ccc(OC)cc4ccc32)cc1 [DBA2]	µM	8.6
COc1ccc(-[n+]2c3ccc4cc(OC)ccc4c3cc3c4ccc(OC)cc4ccc32)cc1 [DBA3]	µM	6.9
c1ccc(-[n+]2c3ccc4ccccc4c3cc3c4ccccc4ccc32)cc1 [DBA5]	µM	4
COc1ccc2c(ccc3c2cc2c4ccc(OC)cc4ccc2[n+]3-c2ccccc2)c1 [DBA1]	µM	3.3

----------
TARGET_SYSTEM: G4T4G4 DNA G4 (antiparallel)
ASSAY_METHOD_TEXT: Native ESI-MS, G4T4G4
Format: binding
CONDITIONS: 10 μM DNA, 20 μM ligand, 100 mM ammonium acetate; read-out: Kd2 G4T4G4
Protocol: Oligonucleotides were purchased lyophilized and RP-cartridge purified from Eurogentec (Kanaka Eurogentec, Seraing, Belgium), then buffer exchanged with ammonium acetate (5 M; Sigma-Aldrich, Saint-Quentin-Fallavier, France) using Amicon Ultra (3 K cut-off; Merck Millipore, Cork, Ireland). The concentrations of the initial stock solutions of DNA/RNA (∼1 mM) were measured by UV absorbance at 260 nm. […]
Recorded measurements of Kd, one per entry

CHEMICAL_STRUCTURE	Kd [µM]
c1ccc(-[n+]2c3ccc4ccccc4c3cc3c4ccccc4ccc32)cc1	33.4
COc1ccc(-[n+]2c3ccc4cc(OC)ccc4c3cc3c4ccc(OC)cc4ccc32)cc1	37
COC(=O)c1ccc(-[n+]2c3ccc4cc(OC)ccc4c3cc3c4ccc(OC)cc4ccc32)cc1	33.6
COc1ccc2c(ccc3c2cc2c4ccc(OC)cc4ccc2[n+]3-c2ccc([N+](=O)[O-])cc2)c1	26.6
COc1ccc2c(ccc3c2cc2c4ccc(OC)cc4ccc2[n+]3-c2ccccc2)c1	38.6

----------
Listing of recorded Kd by entry.
TARGET_SYSTEM: rLTR4 RNA G4
ASSAY_METHOD_TEXT: Native ESI-MS, rLTR4
Format: binding, HIV-1
CONDITIONS: 10 μM RNA, 20 μM ligand, 100 mM ammonium acetate; read-out: Kd3 rLTR4
Experimental: Oligonucleotides were purchased lyophilized and RP-cartridge purified from Eurogentec (Kanaka Eurogentec, Seraing, Belgium), then buffer exchanged with ammonium acetate (5 M; Sigma-Aldrich, Saint-Quentin-Fallavier, France) using Amicon Ultra (3 K cut-off; Merck Millipore, Cork, Ireland). The concentrations of the initial stock solutions of DNA/RNA (∼1 mM) were measured by UV absorbance at 260 nm. […]

COMPOUND	Kd
COc1ccc(-[n+]2c3ccc4cc(OC)ccc4c3cc3c4ccc(OC)cc4ccc32)cc1 [DBA3]	31 µM
COc1ccc2c(ccc3c2cc2c4ccc(OC)cc4ccc2[n+]3-c2ccc([N+](=O)[O-])cc2)c1 [DBA4]	21.3 µM
c1ccc(-[n+]2c3ccc4ccccc4c3cc3c4ccccc4ccc32)cc1 [DBA5]	1.47 µM
COc1ccc2c(ccc3c2cc2c4ccc(OC)cc4ccc2[n+]3-c2ccccc2)c1 [DBA1]	22.8 µM

// data source = paper PMC13334477
